Target: glucocerebrosidase (Gcase) (Homo sapiens)
Sequence (P04062 40-536): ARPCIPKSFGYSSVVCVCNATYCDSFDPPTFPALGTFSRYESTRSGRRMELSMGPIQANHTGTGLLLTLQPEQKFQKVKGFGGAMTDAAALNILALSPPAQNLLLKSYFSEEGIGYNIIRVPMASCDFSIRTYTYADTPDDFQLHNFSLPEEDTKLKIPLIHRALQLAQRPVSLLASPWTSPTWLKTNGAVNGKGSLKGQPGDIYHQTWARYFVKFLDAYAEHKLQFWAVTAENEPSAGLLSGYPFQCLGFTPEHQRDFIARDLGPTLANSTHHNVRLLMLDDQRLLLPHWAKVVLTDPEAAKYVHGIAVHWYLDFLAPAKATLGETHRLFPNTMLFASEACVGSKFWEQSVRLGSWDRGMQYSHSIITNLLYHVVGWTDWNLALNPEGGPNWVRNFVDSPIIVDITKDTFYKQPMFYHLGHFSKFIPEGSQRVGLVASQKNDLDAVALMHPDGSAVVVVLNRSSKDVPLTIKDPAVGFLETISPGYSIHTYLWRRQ
Experiment: Glucocerebrosidase (Gcase) activation assay, 4-methylumbelliferyl-beta-D-glucopyranoside substrate, with saposin C
Assay type: biochemical
Details: test compound at 1.0 μM; read-out: Percent Gcase Activation, 1 μM Test Compound
Each entry below carries its recorded activation at 1 µM.

Exam item: Give the reported activation at 1 µM for this molecule. CCCCO[C@H]1C[C@H]2CC[C@@H](C1)[C@H]2NC(=O)c1ncn2c(COC)cc(C)nc12 [IV-2]
Marked response: > 60%

Exam item: Give the reported activation at 1 µM for this molecule. COc1c(F)cccc1-c1cc(C)n2cnc(C(=O)N[C@@H](C)C3CC3)c2n1 [IV-62]
Marked response: > 60%

Exam item: Give the reported activation at 1 µM for this molecule. CCCCO[C@H]1C[C@H]2CC[C@@H](C1)[C@H]2NC(=O)c1ncn2c(C)cc(COC)nc12 [IV-4]
Marked response: > 60%

Exam item: Give the reported activation at 1 µM for this molecule. Cc1cc(-c2cccc(-c3ncccn3)c2)nc2c(C(=O)NC(C3CC3)C(F)(F)F)ncn12 (centres unmarked) [IV- 61]
Marked response: > 60%

Exam item: Give the reported activation at 1 µM for this molecule. Cc1cc(-c2cc(F)cc(C#N)c2)nc2c(C(=O)NC(C)(C)C)ncn12 [IV-111]
Marked response: > 60%

Exam item: Give the reported activation at 1 µM for this molecule. COc1cccc(-c2cc(C)n3cnc(C(=O)N[C@H](C)C4CC4)c3n2)c1 [IV-1]
Marked response: > 60%
